Tested on: SKOV3 cells
Assay: IC50 concentration of standard ovarian cancer chemotherapy
Type: cell-based
Details: Carboplatin individually; read-out: IC50
ASSAY ENDPOINT: IC50 (µM)
Write the value in µM as a bare number.

Recorded IC50 for N.N.O=C([O-])C1(C(=O)[O-])CCC1.[Pt+2] , please?
10
